Kindly supply the reported Max. Activity values for the records listed here.
- tgt: T1, gamma-delta T cell receptor on human γδ T cells (human)
- T1 construct: also called AG000003021 (γδ T cells)
- test_summary: flow cytometry, dose-response binding at 37 C, human γδ T cells
One number for each entry, in fold over background.

binder: VG9B147 (antibody, human IgG1, lambda, V domains shown, IgG1, lambda) VH: QVQLQESGPGLVNPSETLSLTCTVSGGSISGYFWNWIRQPPGKGLEWIGYIFYSGSTNYNPSLKSRVTISVDTSKNQFSLKLSSVTAADTAIYYCAREGKWELRSTFDIWGQGTMVTVSS VL: SSELTQDPAVSVALGQTVRITCQGDSLRSYYATWYQQKPGQAPILVIYGENNRPSGIPDRFSGSRSGNTASLTITGAQAEDEADYYCNSRDTGDHHLVFGGGTKLTVLG
measurement_unit: fold over background
Max. Activity: 1890

binder: VG9B163 (antibody, human IgG1, lambda, V domains shown, IgG1, lambda) VH: QVQLVQSGGGLVKPGASLKLSCAASGFTFSNHGMSWVRQTSDKRLEWVASITRGGDTTYYPDNVKGRFTISRENAKNTLYLQMSSLKSDDTALYYCTRGPLTVGYAMDYWGQGTTVTVSS VL: QLVLTQPPSVSAAPGQKVTISCSGNSSNIGHNYVSWYQQLPGTAPKLLIYDNNQRPSGIPDRFSGSKSDTSATLGITGLQTGDEADYYCGIWDSSLSIVVFGGGTKVTVLG
measurement_unit: fold over background
Max. Activity: 1350

binder: VG9B380 (antibody, human IgG1, lambda, V domains shown, IgG1, lambda) VH: QVQLQESGPGLVKPSETLSLTCTVSGGSISNYYWSWIRQPAGKGLEWIGRIYPSGITSYDPSLKSRVTMSLDTSKNQFSLKLTSVTAADTAVYYCAGIMGTKGAFDIWGQGTMVTVSS VL: QSALTQPASVSGSPGQSITISCTGTSSDVGGYNYVSWYQQHPGKAPKLLIYEVSNRPSGVSNRFSGSKSGSTASLTISGLQAEDEADYYCSSYTSTSVVFGGGTKLTVLG
measurement_unit: fold over background
Max. Activity: 1750

binder: VG9B87 (antibody, human IgG1, kappa, V domains shown, IgG1, kappa) VH: QVQLVESGAEVKKPGASVKVSCKASGYTFTSEYIHWVRQAPGQGLEWMGIINPSGGSTSYAQRFQGRVTMTRDTSTSTVYMEVNSLRSEDTAVYYCARERGYSYGSFDYWGQGTLVTVSS VL: EIVLTQSPSFLSASAGDRVTITCRASQGISSYLAWYQQKPEKAPKLLIYAASTLQSGVPSRFSGSGSGTEFTLTISSLQPEDFATYYCQQFNSYSLTFGGGTKLEIKR
measurement_unit: fold over background
Max. Activity: 2330

binder: VG9B372 (antibody, human IgG1, kappa, V domains shown, IgG1, kappa) VH: QVQLQESGPGLVKPSQTLSLTCTVSGGSISNGGFYWSWIRQHPGKGLEWLGYINYSGSTYYNPSLESRGTISLDTSKNQFSLKLRSVTAADTAVYYCARDRNYEWNFDLWGRGTLVTVSS VL: EIVMTQSPATLSLSPGEGATLSCRASQSVSSYLAWYQQKPGQAPRLLVYDASNRATGIPARFSGSGSGTAFTLTITSLEPEDFVVYYCQQRSNWPLTFGGGTKLEIKR
measurement_unit: fold over background
Max. Activity: 2290

I have 5 binders here; please give me Max. Activity for each one.
1. VG9B103 (antibody, human IgG1, kappa, V domains shown, IgG1, kappa) VH: EVQLVQSGAEVKKPGSSVKVSCKTSGGTFSSYAISWVRQAPGQGLEWMGGIIPIFGTATYAQKFQDRVTITADKSTSTAYMELSSLRSEDTAVFYCARGVGWGTDYYYGLDVWGQGTTVTVSS VL: ETTLTQSPLSSPVTLGQPASISCRSSQGLVHSDGNTYLSWLQQRPGQSPRLLIYKISNRFSGVPDRFSGSGAGTDFTLKISRVEAEDVGVYYCMQATHHPLTFGGGTKVEIKR
2. VG9B203 (antibody, human IgG1, lambda, V domains shown, IgG1, lambda) VH: QVQLVQSGPGLVKPSETLSLTCTVSGDSIGHYYWNWIRQPAGKGLEWIGRIYTSGSTNYNPSLKSRVTMSVDTSKNQFSLKLSSVTAADTAVYYCARSGGNFYWYFDLWGRGTLVTVSS VL: QSVLTQPPSVSAAPGQKVTISCSGSSSNIGNNYVSWYQQVPGTAPKLLIYDNNKRPSGIPDRISGSKSGTSATLGITGLQTGDEADYYCGTWDSSLSAGVFGGGTKVTVLG
3. VG9B65 (antibody, human IgG1, kappa, V domains shown, IgG1, kappa) VH: QVQLVQSGAEVKKPGSSVKVSCKASGGTFNIYAINWVRQAPGQGLEWMGGIIPFFGTANYAQKFQDRVTITADKSTNTAYMELSSLRSEDTAVFYCARGGDSGYDWGFDYWGQGTLVTVSS VL: DIVMTQTPLSSPVTLGQPASISCRSSQSLVHSDGNTYLSWLQQRPGQPPRLLIYQISNRFSGVPDRFSGSGAGTDFTLNISRVEADDVGVYYCMQATQFPLTFGGGTKVEIKR
4. VG9B177 (antibody, human IgG1, lambda, V domains shown, IgG1, lambda) VH: QVQLQESGPGLVKPSETLSLTCTVSGGSINNYFWSWIRQPPGKGLEWIGYIFYSGSTNYNPSLKSRVTISIDTSKNQFSLKVNSVTAADTAVYYCARVGKWELRTAFDIWGQGTMVTVSS VL: QSALTQPASVSGSPGQSITISCTGTSSDVADYNYVSWYQQHPGKAPKLMIYEVSNRPSGVSNRFSGSKSGNTASLTISGLQAEDEADYYCCSYTSSFTVVFGGGTKVTVLG
5. VG9B115 (antibody, human IgG1, kappa, V domains shown, IgG1, kappa) VH: QVTLRESGPTLVKPTQTLTLTCTFSGFSLSTYGVGVGWIRQPPGKALEWLALIYWNDDKRYNPSLKSRLTITKDTSKNQVVLTMTNMDPVGTATYYCSHESDWSYYFDYWGQGTMVTVSS VL: EIVLTQSPATLSLSPGERATLSCRASQSVSSYLAWYQQKPGLAPRLLIYDASNRATGIPARFSGSGSGTDFTLTISSLEPVDFAVYYCQQRSSWPWTFGQGTKVDIKR

[reply]
1680
1750
1820
2250
1520

Origin of measurements: patent US20220125947A1
